system: UO-31 renal; assay: NCI tumour cell line growth inhibition, 48 h; in the data active = GI50 below about 0.43 µM; inactive = the rest
Outcomes: T = active, F = inactive

> print(dat)
                              moleculesmiles  classlabel
 1  Cc1[nH]c(/C=C2\C(=O)Nc3ccccc32)c(C)c1CCC(=O)O           F
 2       O=C1NC(=O)/C(=C\c2ccccc2)C2=C1CCCC2           F
 3  O=C1NC(=NCCc2cccc(Cl)c2)S/C1=C\c1ccc2ncccc2c1           F
 4  C1=C\COCc2cc(ccc2OCCN2CCCC2)Nc2nccc(n2)-c2cccc(c2)COC/1           F
 5  COc1c[c]([Hg][O]C(C)=O)c(OC)c(NC(=O)CC(C)=O)[c]1[Hg][O]C(C)=O           F
 6  Cn1cc(C2=C(c3cccc(Br)c3)C(=O)NC2=O)c2ccccc21           F
 7    COc1ccc(-c2ccc(-c3ccc(C(=N)N)s3)s2)cc1           T
 8  COc1cc(C(=O)N2CCN(c3ncccn3)CC2)c(N)cc1OCc1ccccc1           F
 9  CC(=O)Oc1ccccc1C(=O)Nc1ncc([N+](=O)[O-])s1           F
10  O=C(Nc1ccc(F)cc1)c1cc(S(=O)(=O)Nc2nc3ccccc3o2)c(SCc2ccccc2)cc1Cl           F

---

tested on: DU-145 prostate; assay: NCI tumour cell line growth inhibition, 48 h

molecule	TGI
CC(C)(C)OC(=O)NC(Cc1ccc(OC(C)(C)C)cc1)C(=O)N[C@H]1CCC[C@H]1C(=O)NC(Cc1ccccc1)C(=O)N1CCCC1C(N)=O (stereo partly specified)	> 100 µM
c1ccc2nc3c(nc2c1)sc1ccccc13	> 100 µM
Cc1cc(C)c(C[C@H]2COC(=O)[C@]2(O)Cc2c(C)cc(C)cc2C)c(C)c1	31.9 µM
Cc1c(C)n(-c2ccccc2)c2nc(S(C)(=O)=O)nc(S(C)(=O)=O)c12	27.7 µM
O=C(O)c1nc2ccc(C(F)(F)F)cc2nc1NCc1ccc(F)cc1	> 100 µM
CC(=O)Oc1ccc2c(c1)c1c(=O)oc(C)nc1n2Cc1ccccc1	> 100 µM
O=C(Oc1cccnc1)c1cc2cc(CCl)ccc2oc1=O	39.5 µM
CCCCSC1=N/C(=C\c2ccco2)C(Cl)=N1	> 100 µM
CC(CO)CCNc1ncnc2c1ncn2CCC(=O)OC(C)(C)C (stereo unspecified)	> 100 µM
CN(C)CC1CCC/C(=C\c2ccc(Cl)cc2)C1=O (stereo unspecified)	29.1 µM
COc1cccc2cc(C(=O)O)c(=O)oc12	> 100 µM
CN1CCc2c(sc3ncn(C)c(=N)c23)C1	> 100 µM
COc1cc2c(c(OC)c1OC)-c1ncc3cc4c(cc3c1C2)OCO4	> 100 µM
O=C(N[C@@H](c1ccccc1)[C@@H](O)C(=O)OCc1ccc([N+](=O)[O-])cc1)c1ccccc1	> 100 µM
CC(=O)O[C@H]1CC[C@@]2(C)C(=CC[C@@H]3[C@@H]2CC[C@]2(C)NC(=O)/C(=C\c4ccccc4)C[C@@H]32)C1	48 µM
CC1C[C@]2(C)C(=NCCN)Nc3ccccc3[C@@H]2N(C)c2ccccc21 (stereo partly specified)	28.7 µM
Fc1ccc(C(=C2CCN(CCc3ccc4[nH]c(=S)[nH]c4c3)CC2)c2ccc(F)cc2)cc1	8.91 µM
CCCCCCCCCCCCC/C=C/[C@@H](O)[C@H](COC1OC(CO)C(OC2OC(CO)C(O)C(OC3(C(=O)O)CC(O)C(NC(C)=O)C(C(O)C(O)CO)O3)C2O)C(O)C1O)N=[N+]=[N-] (stereo partly specified)	> 100 µM
Cc1cc(C)c(C(=O)c2nnc3ccccc3c2N)c(C)c1	84 µM
S=C1SSC2N=CC=CC12 (stereo unspecified)	> 100 µM
N#Cc1c(N/N=C/c2ccc(Cl)cc2Cl)nc(N)nc1N1CCCC1	> 100 µM

---

test system: HCT-15 colon; experiment: NCI tumour cell line growth inhibition, 48 h; in the data active means GI50 below about 0.43 µM; inactive means the rest
Outcomes: Y (active), N (inactive)

> print(dat)
                                    compound        system  classlabel
 1  CN(CCO)c1ccc(N2Cc3ccccc3OC3=C2C(=O)c2c(O)ccc(O)c2C3=O)cn1  HCT-15 colon           Y
 2  C=C1C(=O)O[C@H]2[C@H]1CC/C(COC(=O)/C=C\C(=O)NCc1ccc(Cn3c(=O)sn(CCCC)c3=O)cc1)=C\CC[C@@]1(C)O[C@@H]21  HCT-15 colon           Y
 3  CC(C)(S)C(N)C(=O)O (configuration not stated)  HCT-15 colon           N
 4  COc1cc(OC)c(/C=C/c2c3ccccc3cc[n+]2C)c(OC)c1  HCT-15 colon           N
 5  Cc1cc(C)c(NC(=O)c2sc3nc4c(cc3c2N)CN(Cc2ccccc2)CC4)c(C)c1  HCT-15 colon           N
 6  O=C(Nc1ccc(F)cc1)c1cc(S(=O)(=O)Nc2nc3ccccc3o2)c(SCc2ccccc2)cc1Cl  HCT-15 colon           N
 7  C#COc1cccc(Nc2c(C#N)cnc3ncc(NC(=O)CCl)cc23)c1  HCT-15 colon           N
 8  COc1cc2c(c(OC)c1OC)-c1ncc3cc4c(cc3c1C2)OCO4  HCT-15 colon           N
 9  COc1c[c]([Hg][O]C(C)=O)c(OC)c(NC(=O)CC(C)=O)[c]1[Hg][O]C(C)=O  HCT-15 colon           N
10       O=C1NC(=O)/C(=C\c2ccccc2)C2=C1CCCC2  HCT-15 colon           N
11  O=C(CSC1CCc2ccccc21)N/N=C/c1ccccc1O (configuration not stated)  HCT-15 colon           N
12  O=C1NC(=O)C(c2cccc([N+](=O)[O-])c2)=C1Nc1cc(Cl)c(O)c(Cl)c1  HCT-15 colon           N

---

system: NCI-H460 lung
Outcomes: active, inactive

> print(dat)
                                    compound  classlabel
 1  CCCCCOc1ccc(/C=N/Nc2cc(C)nc3ccc(Br)cc23)cc1    inactive
 2  CC1=C(C(=O)Nc2ccc(Cl)c(Cl)c2)C(c2cccc(Oc3ccccc3)c2)NC(=O)N1 (stereo not drawn)    inactive
 3  O[C@H](c1cc(C(F)(F)F)nc2c(C(F)(F)F)cccc12)[C@@H]1CCCCN1    inactive
 4  C#COc1cccc(Nc2c(C#N)cnc3ncc(NC(=O)CCl)cc23)c1    inactive
 5  O=C(Nc1ccc(-n2ccc3c(NC(=O)c4ccccc4)nccc32)cc1)Nc1ccc(Cl)c(Cl)c1      active
 6       COc1ccc(-n2c(C)cc(-c3ccccc3)c2C)cc1    inactive
 7  COc1cc2c(c(OC)c1OC)-c1ncc3cc4c(cc3c1C2)OCO4    inactive
 8  OCCCNc1nccc(-c2c(-c3ccc(F)cc3)nn3cc(C(F)(F)F)ccc23)n1    inactive
 9  Cc1cc(C)c(/C=C2\C(=O)Nc3ccc(NC(=O)CCCCCCC(=O)NO)cc32)[nH]1    inactive
10  Cc1cc(C)c(NC(=O)c2sc3nc4c(cc3c2N)CN(Cc2ccccc2)CC4)c(C)c1    inactive
11  CCN1C(=O)N(CC)C2C1NN=c1s/c(=C3\C(=O)N(CC(C)(C)C)c4ccccc43)c(=O)n12 (stereo not drawn)    inactive
12  O=S(=O)(Nc1ccc(F)cc1F)c1ccc(-c2cnc(C3CC3)o2)cc1      active
13  O=C(CSC1CCc2ccccc21)N/N=C/c1ccccc1O (stereo not drawn)    inactive

---

system: HOP-92 NSCLC; assay: NCI tumour cell line growth inhibition, 48 h
reportedEndpoint: TGI (µM)

> print(dat)
                                    molecule  comparator  reported
 1   COC(=O)c1c(C#N)[nH]c(-c2ccsc2)c1C(=O)OC           >       100
 2  c1ccc2c(c1)c1c(c3ccccc32)CN2CCCC2C1 (stereo unspecified)           =      13.4
 3  C=C1C(=O)OC2CC(C)C3(O)CCC(=O)C3(C)CC12 (stereo unspecified)           >       100
 4                CC1=CCC(C)=Nc2nc3ccccc3n21           >       100
 5  CN1C(=O)/C(=C/c2c(Cl)n(C)c3ccccc23)c2ccccc21           =      3.34
 6  CCC(=O)O[C@H]1CC[C@H]2[C@@H]3CCC4=C/C(=N/OC(=O)c5cccc6c(=O)c7ccccc7[nH]c56)CC[C@]4(C)[C@H]3CC[C@]12C           =      74.5
 7  [N-]=[N+]=NC1C(O)C(CO)OC1n1ccc(=O)[nH]c1=O (stereo unspecified)           >       875
 8           Nc1nc(Cl)c(N)c(NCC2(CO)CCCC2)n1           >       100
 9  COC(=O)[C@H]1C=C[C@@H](C)n2c(=O)c3cc4ccccc4cc3c(=O)n21           >       100
10            O=C(CCc1cc(O)ccc1O)OCCc1ccccc1           =        13
11     Cc1cc(C)c(C(=O)c2nnc3ccccc3c2N)c(C)c1           =      52.9
